System: NCI-H23 lung
test: NCI-60 one-dose screen, 48 h (100 = growth as untreated, 0 = no growth, -100 = all killed)
reported conditions: 10 µM unless noted
Procedure: Growth inhibition of the NCI-H23 human Non-Small Cell Lung tumor cell line is measured as a screen for anti-cancer activity. Cells are grown in 96 well plates and exposed to the test compound for 48 hours. Compounds are tested at a single concentration, which is 10^-5 M for most compounds. The reported endpoint is percent growth (GI% or GIPRCNT), where numbers from 0 - 100% represent growth inhibition, and numbers from -100% - 0 represent cell death. […]
The panel holds about 83,000 compounds, 20% with a hit somewhere; the sample as a whole holds those more often.
experimental readout: growth (%)
// units = %; emit number, no label

CCN(CC)c1ccc2c(c1)Oc1nc(N)c(C#N)c(N)c1C2Sc1ccc(F)cc1 (stereo unspecified); -82.3
C=C(C)[C@@H]1CC[C@]2(C(=O)NCCCCCN(CCC#N)CCC#N)CC[C@]3(C)[C@H](CC[C@@H]4[C@@]5(C)CCC(=O)C(C)(C)[C@@H]5CC[C@]43C)[C@@H]12; 95.3
COc1ccc(NC(=O)CSc2nnc(-c3ccc4nc(-c5ccc(OC)c(OC)c5)[nH]c4c3)o2)cc1OC; 80.6
CCN1CCN(Cc2ccc(C(=O)Nc3ccc(C)c(Oc4ccc(-c5[nH]nc6ncnc(N)c56)cc4)c3)cc2C(F)(F)F)CC1; 93.2
Nc1cc(F)ccc1NC(=O)c1ccc(NC(=O)C/C=C/c2cccnc2)cc1; 62.5

Quick check: growth of C#CC(=O)N(c1ccc(OC)cc1OC)C(C(=O)NCC(=O)OCC)c1cccs1 (stereo unspecified) ? -54.7

Quick check: growth of Nc1ncc(-c2ccc3ncnc(N4CCc5cc(F)c(Cl)cc54)c3c2)cn1 ? 31.7

Quick check: growth of CCn1c2ccccc2c2cc(-n3nncc3-c3ccccc3)ccc21 ? 7.25

Quick check: growth of O=C1Nc2ccccc2/C1=C/c1ccc(COCC2CO2)n1-c1ccc(O)cc1 (stereo unspecified) ? 100

Quick check: growth of O=C(Nc1ccc(F)c(F)c1)c1cc(-c2ccc(F)cc2F)ccc1O ? -9.76

Quick check: growth of Cc1ccc2c(c1)C(=O)/C(=C/c1cccc(F)c1)S2 ? 101

Quick check: growth of COc1cc2nc(Cl)nc(Nc3cccc(C4=Nc5c(N)nc(N)nc5NC(c5ccc(F)cc5)C4)c3)c2cc1OC (stereo unspecified) ? 75.9
